# protocol.details: NCI Yeast Anticancer Drug Screen. Data for the sgs1 mgt1 strain (AID 161)
# condition.description: S. cerevisiae sgs1 mgt1 strain, at 50.0 µM (retest, dose inferred, filed as 5.0)
The panel holds about 79,000 compounds, 15% with a hit somewhere; the sample as a whole holds those more often. Activity calls are given as the source filed them. Cut-off read from the data, not from the text of the source: active = growth inhibition above about 70%; inactive = the rest.
Tick one outcome: active, inactive

# compound, class.name
rows = [
    ("O=C(/C=C\\c1ccc(Cl)c(Cl)c1)c1cccs1", "inactive"),
    ("Cc1nc2c(cnn2C)cc1CCc1ccccc1", "inactive"),
    ("N[C@@H]1CCCC[C@@H]1N.O=C([O-])CN(CP(=O)([O-])[O-])CP(=O)([O-])[O-].[Pt+2]", "active"),
    ("CC1([N+](=O)[O-])C(=O)C2(N3CCCCC3)CCCC2C1c1ccccc1 (centres undefined)", "inactive"),
]

Query: Please state the recorded outcome for this compound: `O=S(=O)(ON=C1C=CC(=NOS(=O)(=O)c2ccccc2)C=C1)c1ccccc1`
Reply: inactive

Query: Same lookup for `OCCc1ccc(-n2cnc3c(Nc4ccc(Cl)cc4)ncnc32)cc1` , please.
Reply: active

Query: Try this compound next: CN/N=C(\C)C(CN1CCCCC1)C(C1=C(O)c2ccccc2OC1)c1ccccc1 (centres undefined)
Reply: inactive
